Test system: Nucleic Acid
Measurement Description: Binding affinity to HIV TAR RNA by electrophoretic mobility shift assay in presence of Escherichia coli tRNA
Type: nucleic-acid assay, Human immunodeficiency virus
pKd: −log10 of the molar value.

# Smiles Data, pKd
data = [
    ("C/N=C(\\NC)NCCC[C@H](NC(=O)CNC(=O)[C@H](Cc1ccc(O)cc1)NC(C)=O)C(=O)N[C@@H](CCCCN)C(=O)N[C@@H](CCCCN)C(=O)N[C@@H](CCCNC(=N)N)C(=O)N[C@@H](CCCNC(=N)N)C(=O)N[C@@H](CCC(N)=O)C(=O)N[C@@H](CCCNC(=N)N)C(=O)N[C@@H](CCCNC(=N)N)C(=O)N[C@@H](CCCNC(=N)N)C(N)=O", 6.66),
    ("CC(=O)N[C@@H](Cc1ccc(O)cc1)C(=O)NCC(=O)N[C@@H](CCCNC(=N)N(C)C)C(=O)N[C@@H](CCCCN)C(=O)N[C@@H](CCCCN)C(=O)N[C@@H](CCCNC(=N)N)C(=O)N[C@@H](CCCNC(=N)N)C(=O)N[C@@H](CCC(N)=O)C(=O)N[C@@H](CCCNC(=N)N)C(=O)N[C@@H](CCCNC(=N)N)C(=O)N[C@@H](CCCNC(=N)N)C(N)=O", 6.55),
    ("C/N=C(\\NC)NCCC[C@H](NC(=O)[C@H](CCCNC(=N)N)NC(=O)[C@H](CCCCN)NC(=O)[C@H](CCCCN)NC(=O)[C@H](CCCNC(=N)N)NC(=O)CNC(=O)[C@H](Cc1ccc(O)cc1)NC(C)=O)C(=O)N[C@@H](CCC(N)=O)C(=O)N[C@@H](CCCNC(=N)N)C(=O)N[C@@H](CCCNC(=N)N)C(=O)N[C@@H](CCCNC(=N)N)C(N)=O", 6.24),
    ("CNC(=N)NCCC[C@H](NC(=O)[C@H](CCCNC(=N)N)NC(=O)[C@H](CCC(N)=O)NC(=O)[C@H](CCCNC(=N)N)NC(=O)[C@H](CCCNC(=N)N)NC(=O)[C@H](CCCCN)NC(=O)[C@H](CCCCN)NC(=O)[C@H](CCCNC(=N)N)NC(=O)CNC(=O)[C@H](Cc1ccc(O)cc1)NC(C)=O)C(=O)N[C@@H](CCCNC(=N)N)C(N)=O", 6.66),
    ("C/N=C(\\NC)NCCC[C@H](NC(=O)[C@H](CCC(N)=O)NC(=O)[C@H](CCCNC(=N)N)NC(=O)[C@H](CCCNC(=N)N)NC(=O)[C@H](CCCCN)NC(=O)[C@H](CCCCN)NC(=O)[C@H](CCCNC(=N)N)NC(=O)CNC(=O)[C@H](Cc1ccc(O)cc1)NC(C)=O)C(=O)N[C@@H](CCCNC(=N)N)C(=O)N[C@@H](CCCNC(=N)N)C(N)=O", 6.28),
    ("CNC(=N)NCCC[C@H](NC(=O)[C@H](CCC(N)=O)NC(=O)[C@H](CCCNC(=N)N)NC(=O)[C@H](CCCNC(=N)N)NC(=O)[C@H](CCCCN)NC(=O)[C@H](CCCCN)NC(=O)[C@H](CCCNC(=N)N)NC(=O)CNC(=O)[C@H](Cc1ccc(O)cc1)NC(C)=O)C(=O)N[C@@H](CCCNC(=N)N)C(=O)N[C@@H](CCCNC(=N)N)C(N)=O", 6.42),
    ("C/N=C(\\NC)NCCC[C@H](NC(=O)[C@H](CCCNC(=N)N)NC(=O)[C@H](CCC(N)=O)NC(=O)[C@H](CCCNC(=N)N)NC(=O)[C@H](CCCNC(=N)N)NC(=O)[C@H](CCCCN)NC(=O)[C@H](CCCCN)NC(=O)[C@H](CCCNC(=N)N)NC(=O)CNC(=O)[C@H](Cc1ccc(O)cc1)NC(C)=O)C(=O)N[C@@H](CCCNC(=N)N)C(N)=O", 6.50),
]

###

Tested on: Jurkat
Measurement Description: Cellular uptake in human Jurkat cells at 7 to 120 uM after 15 mins by 6-carboxyfluorescein staining-based flow cytometry
Format: ADME, cell-based
Assay Setup: 0.25 h
Value Kind: Drug uptake

# Smiles Data, Experimental Value
rows = [
    ("C/N=C(\\NC)NCCC[C@H](NC(=O)[C@H](CCCCN)NC(=O)[C@H](CCCCN)NC(=O)[C@H](CCCNC(=N)N)NC(=O)CNC(=O)[C@H](Cc1ccc(O)cc1)NC(=O)CCNC(=O)c1ccc2c(c1)C1(OC2=O)c2ccc(O)cc2Oc2cc(O)ccc21)C(=O)N[C@@H](CCCNC(=N)N)C(=O)N[C@@H](CCC(N)=O)C(=O)N[C@@H](CCCNC(=N)N)C(=O)N[C@@H](CCCNC(=N)N)C(=O)N[C@@H](CCCNC(=N)N)C(N)=O", "Active"),
    ("CN(C)C(=N)NCCC[C@H](NC(=O)[C@H](CCCCN)NC(=O)[C@H](CCCCN)NC(=O)[C@H](CCCNC(=N)N)NC(=O)CNC(=O)[C@H](Cc1ccc(O)cc1)NC(=O)CCNC(=O)c1ccc2c(c1)C1(OC2=O)c2ccc(O)cc2Oc2cc(O)ccc21)C(=O)N[C@@H](CCCNC(=N)N)C(=O)N[C@@H](CCC(N)=O)C(=O)N[C@@H](CCCNC(=N)N)C(=O)N[C@@H](CCCNC(=N)N)C(=O)N[C@@H](CCCNC(=N)N)C(N)=O", "Active"),
    ("N=C(N)NCCC[C@H](NC(=O)[C@H](CCCNC(=N)N)NC(=O)[C@H](CCCNC(=N)N)NC(=O)[C@H](CCC(N)=O)NC(=O)[C@H](CCCNC(=N)N)NC(=O)[C@H](CCCNC(=N)N)NC(=O)[C@H](CCCCN)NC(=O)[C@H](CCCCN)NC(=O)[C@H](CCCNC(=N)N)NC(=O)CNC(=O)[C@H](Cc1ccc(O)cc1)NC(=O)CCNC(=O)c1ccc2c(c1)C1(OC2=O)c2ccc(O)cc2Oc2cc(O)ccc21)C(N)=O", "Active"),
    ("C/N=C(\\NC)NCCC[C@H](NC(=O)[C@H](CCCNC(=N)N)NC(=O)[C@H](CCC(N)=O)NC(=O)[C@H](CCCNC(=N)N)NC(=O)[C@H](CCCNC(=N)N)NC(=O)[C@H](CCCCN)NC(=O)[C@H](CCCCN)NC(=O)[C@H](CCCNC(=N)N)NC(=O)CNC(=O)[C@H](Cc1ccc(O)cc1)NC(=O)CCNC(=O)c1ccc2c(c1)C1(OC2=O)c2ccc(O)cc2Oc2cc(O)ccc21)C(=O)N[C@@H](CCCNC(=N)N)C(N)=O", "Active"),
    ("CN(C)C(=N)NCCC[C@H](NC(=O)[C@H](CCCNC(=N)N)NC(=O)[C@H](CCC(N)=O)NC(=O)[C@H](CCCNC(=N)N)NC(=O)[C@H](CCCNC(=N)N)NC(=O)[C@H](CCCCN)NC(=O)[C@H](CCCCN)NC(=O)[C@H](CCCNC(=N)N)NC(=O)CNC(=O)[C@H](Cc1ccc(O)cc1)NC(=O)CCNC(=O)c1ccc2c(c1)C1(OC2=O)c2ccc(O)cc2Oc2cc(O)ccc21)C(=O)N[C@@H](CCCNC(=N)N)C(N)=O", "Active"),
]

###

Test system: Jurkat
Measurement Description: Cellular uptake in human Jurkat cells at 7 to 120 uM after 15 mins by 6-carboxyfluorescein staining-based flow cytometry
Type: ADME, cell-based
Assay Setup: 0.25 h

# Smiles Data, Drug uptake
records = [
    ("CNC(=N)NCCC[C@H](NC(=O)[C@H](CCC(N)=O)NC(=O)[C@H](CCCNC(=N)N)NC(=O)[C@H](CCCNC(=N)N)NC(=O)[C@H](CCCCN)NC(=O)[C@H](CCCCN)NC(=O)[C@H](CCCNC(=N)N)NC(=O)CNC(=O)[C@H](Cc1ccc(O)cc1)NC(=O)CCNC(=O)c1ccc2c(c1)C1(OC2=O)c2ccc(O)cc2Oc2cc(O)ccc21)C(=O)N[C@@H](CCCNC(=N)N)C(=O)N[C@@H](CCCNC(=N)N)C(N)=O", "Active"),
    ("CNC(=N)NCCC[C@H](NC(=O)[C@H](CCCNC(=N)N)NC(=O)[C@H](CCCCN)NC(=O)[C@H](CCCCN)NC(=O)[C@H](CCCNC(=N)N)NC(=O)CNC(=O)[C@H](Cc1ccc(O)cc1)NC(=O)CCNC(=O)c1ccc2c(c1)C1(OC2=O)c2ccc(O)cc2Oc2cc(O)ccc21)C(=O)N[C@@H](CCC(N)=O)C(=O)N[C@@H](CCCNC(=N)N)C(=O)N[C@@H](CCCNC(=N)N)C(=O)N[C@@H](CCCNC(=N)N)C(N)=O", "Active"),
]

###

System: Jurkat
Measurement Description: Cellular uptake in human Jurkat cells at 7 to 120 uM after 15 mins by 6-carboxyfluorescein staining-based flow cytometry
Format: ADME, cell-based
Assay Setup: 0.25 h
Value Kind: Drug uptake

# Smiles Data, Value Kind, Experimental Value
records = [
    ("CNC(=N)NCCC[C@H](NC(=O)CNC(=O)[C@H](Cc1ccc(O)cc1)NC(=O)CCNC(=O)c1ccc2c(c1)C1(OC2=O)c2ccc(O)cc2Oc2cc(O)ccc21)C(=O)N[C@@H](CCCCN)C(=O)N[C@@H](CCCCN)C(=O)N[C@@H](CCCNC(=N)N)C(=O)N[C@@H](CCCNC(=N)N)C(=O)N[C@@H](CCC(N)=O)C(=O)N[C@@H](CCCNC(=N)N)C(=O)N[C@@H](CCCNC(=N)N)C(=O)N[C@@H](CCCNC(=N)N)C(N)=O", "Drug uptake", "Active"),
    ("C/N=C(\\NC)NCCC[C@H](NC(=O)[C@H](CCCNC(=N)N)NC(=O)[C@H](CCCNC(=N)N)NC(=O)[C@H](CCC(N)=O)NC(=O)[C@H](CCCNC(=N)N)NC(=O)[C@H](CCCNC(=N)N)NC(=O)[C@H](CCCCN)NC(=O)[C@H](CCCCN)NC(=O)[C@H](CCCNC(=N)N)NC(=O)CNC(=O)[C@H](Cc1ccc(O)cc1)NC(=O)CCNC(=O)c1ccc2c(c1)C1(OC2=O)c2ccc(O)cc2Oc2cc(O)ccc21)C(N)=O", "Drug uptake", "Active"),
]

From: ChEMBL document CHEMBL3400097
